From: ChEMBL document CHEMBL1158789

Test system: A549
Assay: Cytotoxicity against human A549 cells by MTT assay
Format: functional, cell-based
# IC50 values compiled below

C=C1[C@]2(C)CC[C@@]1(C)c1cc(Br)c(C)cc1O2 = > 10 µg/mL
CC1(C)[C@]23C[C@H](Br)[C@@](C)(Cl)C[C@@H]2O[C@]1(Br)[C@H](O)[C@H]1O[C@]13C [JOHNSTONOL] = > 10 µg/mL
Cc1cc2c(cc1Br)[C@]1(C)CC[C@H](C)[C@]1(CO)O2 [APLYSINOL] = > 10 µg/mL

Query :: I have this compound here, CC(C)=CCCC(C)(O)c1ccc(C)cc1 (centres undefined) [GOSSONOROL] , and I need its recorded IC50.
Result :: > 10 µg/mL

Query :: I have this compound here, C=C1[C@](C)(O)CC[C@@]1(C)c1ccc(C)cc1 , and I need its recorded IC50.
Result :: > 10 µg/mL

Query :: I have this compound here, Cc1ccc([C@]2(C)CC[C@@H](C(C)(C)O)O2)cc1 , and I need its recorded IC50.
Result :: > 10 µg/mL
